Target: T1, human melanocortin 3 receptor (human, UniProt P41968 1-323)
T1 construct: whole, on cells; also called hMC3-R; MC3-R
T1 sequence (P41968 whole entry): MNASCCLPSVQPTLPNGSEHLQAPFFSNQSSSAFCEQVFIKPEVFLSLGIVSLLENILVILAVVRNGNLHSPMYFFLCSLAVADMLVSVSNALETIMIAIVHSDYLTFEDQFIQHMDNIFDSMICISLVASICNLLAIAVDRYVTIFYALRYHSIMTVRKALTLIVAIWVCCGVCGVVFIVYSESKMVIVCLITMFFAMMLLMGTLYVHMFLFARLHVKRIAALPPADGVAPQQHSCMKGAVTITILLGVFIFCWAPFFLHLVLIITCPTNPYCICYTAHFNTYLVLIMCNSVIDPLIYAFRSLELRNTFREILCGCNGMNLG
Experiment: radioligand competition, [I125]-NDP-α-MSH, hMC3-R membranes
metric-name: Ki (nM)
Report as a plain number; the unit nM is understood.

### Prompt Dear colleague, please send me the reported Ki for XDHFRXK (N-terminal acetyl; Nle at 1 (X); D-Phe at 4; Nal 1 at 6 (X); cyclo(Asp 2 to Lys 7); C-terminal dimethylamide -N(CH3)2, also called Compound No. 37) [Ac-Nle-cyclo(-Asp-His-D-Phe-Arg-Nal 1-Lys)-N(CH3)2] when you can.
### Response 111
